Target: MMP-1 (Homo sapiens)
Construct: made in house; host or cells: MMP-1-transfected HT-1080 cells (spent media)
Sequence (P03956 100-469): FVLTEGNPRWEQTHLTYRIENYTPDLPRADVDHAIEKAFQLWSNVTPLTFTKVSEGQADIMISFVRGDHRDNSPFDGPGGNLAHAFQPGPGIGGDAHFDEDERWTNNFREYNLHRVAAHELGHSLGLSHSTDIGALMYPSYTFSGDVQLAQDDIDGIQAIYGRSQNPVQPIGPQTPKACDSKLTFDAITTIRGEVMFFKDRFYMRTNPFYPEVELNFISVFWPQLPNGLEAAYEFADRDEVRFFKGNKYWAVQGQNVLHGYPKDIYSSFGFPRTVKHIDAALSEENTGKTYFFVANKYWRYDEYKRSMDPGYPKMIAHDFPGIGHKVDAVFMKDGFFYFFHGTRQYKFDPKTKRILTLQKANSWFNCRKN
Experiment: In vitro MMP inhibition, Ki determination (fluorogenic substrate II)
Assay type: biochemical
Settings: value outside parentheses; read-out: MMP-1 Ki
# Ki values compiled below

smiles.code: O=C(NO)C1(S(=O)(=O)N2CCC(c3ccc(OCc4ccccc4)cn3)CC2)CCOCC1
Ki: 1.95 µM
//
smiles.code: CCCCOc1ccc(N2CCN(S(=O)(=O)C3(C(=O)NO)CCNCC3)CC2)cc1
Ki: > 10 µM
//
smiles.code: O=C(NO)C1(S(=O)(=O)N2CCC(c3ccc(CCCC(F)(F)F)cc3)CC2)CCN(C2CC2)CC1
Ki: > 10 µM
//
smiles.code: O=C(NO)C1(S(=O)(=O)N2CCC(c3ccc(OCC(F)(F)C(F)F)cc3)CC2)CCN(CCN2CCOCC2)CC1
Ki: > 10 µM
//
smiles.code: COCCOc1ccc(N2CCN(S(=O)(=O)C3(C(=O)NO)CCN(C4CC4)CC3)CC2)cc1F
Ki: > 10 µM
//
smiles.code: O=C(NO)C1(S(=O)(=O)N2CCN(c3ccc(Br)cn3)CC2)CCOCC1
Ki: 0.279 µM
//
smiles.code: CCCCOc1ccc(N2CCN(S(=O)(=O)C3(C(=O)NO)CCN(C4CC4)CC3)CC2)cc1
Ki: > 10 µM
//
smiles.code: O=C(NO)C1(S(=O)(=O)N2CCC(c3ccc(OCCC(F)(F)F)cn3)CC2)CCOCC1
Ki: 3.08 µM

====

Target: MMP-9 (Homo sapiens, UniProt P14780)
Construct: made in house; host or cells: MMP-9-transfected HT1080 cells (spent media)
Sequence (P14780 107-707 limits assumed): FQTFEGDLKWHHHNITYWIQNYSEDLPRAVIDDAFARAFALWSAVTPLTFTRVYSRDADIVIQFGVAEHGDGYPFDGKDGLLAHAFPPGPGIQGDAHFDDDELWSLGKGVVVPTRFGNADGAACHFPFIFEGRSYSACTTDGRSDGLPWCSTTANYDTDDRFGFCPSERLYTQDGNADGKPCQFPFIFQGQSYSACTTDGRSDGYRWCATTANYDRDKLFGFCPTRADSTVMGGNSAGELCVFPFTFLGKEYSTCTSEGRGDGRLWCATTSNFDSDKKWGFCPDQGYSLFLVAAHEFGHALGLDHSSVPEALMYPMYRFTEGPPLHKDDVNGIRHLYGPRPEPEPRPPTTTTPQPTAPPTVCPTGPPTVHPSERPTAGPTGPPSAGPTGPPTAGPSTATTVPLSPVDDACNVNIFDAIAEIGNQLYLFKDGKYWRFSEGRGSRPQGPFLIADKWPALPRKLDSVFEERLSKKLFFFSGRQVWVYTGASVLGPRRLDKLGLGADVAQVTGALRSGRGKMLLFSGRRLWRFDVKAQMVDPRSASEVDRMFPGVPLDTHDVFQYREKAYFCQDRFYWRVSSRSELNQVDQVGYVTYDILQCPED
Assay: In vitro MMP inhibition, Ki determination (fluorogenic substrate II)
Type: biochemical
Settings: value outside parentheses
Method: Several hydroxamic acids and salts thereof were analyzed in in vitro assays to determine their ability to inhibit the MMP cleavage of peptide substrates. […] and IC50 constants were calculated from the assayed hydroxamic acid-MMP interactions. […] The assays from which the Ki determinations were made were performed as follows. […] In the absence of MMP inhibitory activity, substrate II was cleaved at the Gly-Leu bond resulting in an increase of relative fluorescence. […]
pKi: −log10 of the molar value.
# binarize pKi: threshold 8 inclusive, high side 1, low side -1

compound: O=C(NO)C1(S(=O)(=O)N2CCN(c3ccc(CCCC(F)(F)F)cn3)CC2)CCOCC1 [Example 358]
assigned.label: 1

compound: O=C(NO)C1(S(=O)(=O)N2CCC(c3ccc(-c4ccc(C(F)(F)F)cc4)cn3)CC2)CCOCC1 [Example 395]
assigned.label: -1

compound: CCCCCc1ccc(C2CCN(S(=O)(=O)C3(C(=O)NO)CCOCC3)CC2)nc1 [Example 305]
assigned.label: 1

compound: O=C(O)c1ccc(N2CCN(S(=O)(=O)C3(C(=O)NO)CCOCC3)CC2)cc1 [Example 352]
assigned.label: -1

compound: O=C(NO)C1(S(=O)(=O)N2CCN(c3ccc(CCCC(F)(F)F)cc3)CC2)CCOCC1 [Example 320]
assigned.label: 1

compound: O=C(NO)C1(S(=O)(=O)N2CCC(COCC(F)(F)C(F)(F)C(F)(F)C(F)F)CC2)CCOCC1 [Example 378]
assigned.label: -1

compound: COCCN1CCC(C(=O)NO)(S(=O)(=O)N2CCC(c3ccc(CCCC(F)(F)F)cc3)CC2)CC1 [Example 310]
assigned.label: 1

compound: CCCCCC/C=C/C1CCN(S(=O)(=O)C2(C(=O)NO)CCOCC2)CC1 [Example 402]
assigned.label: 1

compound: NC(=O)c1ccccc1-c1cnc(N2CCN(S(=O)(=O)C3(C(=O)NO)CCOCC3)CC2)s1 [Example 383]
assigned.label: -1

compound: CCCCOc1ccc(N2CCN(S(=O)(=O)C3(C(=O)NO)CCN(CCOC)CC3)CC2)c(F)c1 [Example 284]
assigned.label: 1

compound: O=C(NO)C1(S(=O)(=O)N2CCC(COCc3ccc(SC(F)(F)F)cc3)CC2)CCOCC1 [Example 405]
assigned.label: 1

compound: CCc1ccc(N2CCN(S(=O)(=O)C3(C(=O)NO)CCCC3)CC2)nc1 [Example 261]
assigned.label: 1

compound: O=C(NO)C1(S(=O)(=O)N2CCN(c3ccc(Br)cn3)CC2)CCOCC1 [Example 331]
assigned.label: 1

compound: CCCCOc1ccc(N2CCN(S(=O)(=O)C3(C(=O)NO)CCN(C(=O)c4ccccc4)CC3)CC2)cc1 [Example 255]
assigned.label: 1

compound: CCCCOc1ccc(N2CCN(S(=O)(=O)C3(C(=O)NO)CCNCC3)CC2)cc1F [Example 286]
assigned.label: -1

compound: CCCCOc1ccc(N2CCN(S(=O)(=O)C3(C(=O)NO)CCN(C)CC3)CC2)cc1 [Example 280]
assigned.label: 1

compound: O=C(NO)C1(S(=O)(=O)N2CCC(c3ccc(OCC(F)(F)C(F)F)cc3)CC2)CCN(C2CC2)CC1 [Example 350]
assigned.label: 1

compound: O=C(NO)C1(S(=O)(=O)N2CCC(c3ccc(OCc4ccccc4)cn3)CC2)CCOCC1 [Example 398]
assigned.label: 1

compound: CCCCCc1cccc(N2CCN(S(=O)(=O)C3(C(=O)NO)CCOCC3)CC2)c1 [Example 356]
assigned.label: -1

compound: O=C(NO)C1(S(=O)(=O)N2CCN(c3ncc(-c4ccc(C(F)(F)F)cc4)s3)CC2)CCOCC1 [Example 346]
assigned.label: 1

compound: CCCCc1ccc(N2CCN(S(=O)(=O)C3(C(=O)NO)CCN(CCOC)CC3)CC2)nc1 [Example 270]
assigned.label: 1

compound: O=C(NO)C1(S(=O)(=O)N2CCN(c3ncc(-c4ccc([N+](=O)[O-])cc4)s3)CC2)CCOCC1 [Example 363]
assigned.label: 1

compound: O=C(NO)C1(S(=O)(=O)N2CCC(c3ccc(-c4cccnc4)cn3)CC2)CCOCC1 [Example 390]
assigned.label: -1

compound: COCCN1CCC(C(=O)NO)(S(=O)(=O)N2CCC(c3ccc(CCC(F)(F)C(F)(F)F)cc3)CC2)CC1 [Example 312]
assigned.label: 1

compound: O=C(NO)C1(S(=O)(=O)N2CCN(c3ccc(-c4ccc(F)cc4F)cn3)CC2)CCOCC1 [Example 316]
assigned.label: 1

compound: O=C(NO)C1(S(=O)(=O)N2CCN(c3nc(-c4ccccc4)cs3)CC2)CCOCC1 [Example 415]
assigned.label: -1

compound: O=C(NO)C1(S(=O)(=O)N2CCN(c3ccc(OCCCC(F)(F)F)cc3)CC2)CC(O)C1 (centres unmarked) [Example 342]
assigned.label: -1

compound: O=C(NO)C1(S(=O)(=O)N2CCC(c3ccc(CCCC(F)(F)F)cc3)CC2)CCN(C2CC2)CC1 [Example 351]
assigned.label: 1

compound: CCCCOc1ccc(N2CCN(S(=O)(=O)C3(C(=O)NO)CCN(C(=O)COC)CC3)CC2)cc1 [Example 268]
assigned.label: 1
